Target: human ether-à-go-go-related gene (hERG) potassium channel (human, UniProt Q12809)
Sequence (Q12809 whole entry, looked up): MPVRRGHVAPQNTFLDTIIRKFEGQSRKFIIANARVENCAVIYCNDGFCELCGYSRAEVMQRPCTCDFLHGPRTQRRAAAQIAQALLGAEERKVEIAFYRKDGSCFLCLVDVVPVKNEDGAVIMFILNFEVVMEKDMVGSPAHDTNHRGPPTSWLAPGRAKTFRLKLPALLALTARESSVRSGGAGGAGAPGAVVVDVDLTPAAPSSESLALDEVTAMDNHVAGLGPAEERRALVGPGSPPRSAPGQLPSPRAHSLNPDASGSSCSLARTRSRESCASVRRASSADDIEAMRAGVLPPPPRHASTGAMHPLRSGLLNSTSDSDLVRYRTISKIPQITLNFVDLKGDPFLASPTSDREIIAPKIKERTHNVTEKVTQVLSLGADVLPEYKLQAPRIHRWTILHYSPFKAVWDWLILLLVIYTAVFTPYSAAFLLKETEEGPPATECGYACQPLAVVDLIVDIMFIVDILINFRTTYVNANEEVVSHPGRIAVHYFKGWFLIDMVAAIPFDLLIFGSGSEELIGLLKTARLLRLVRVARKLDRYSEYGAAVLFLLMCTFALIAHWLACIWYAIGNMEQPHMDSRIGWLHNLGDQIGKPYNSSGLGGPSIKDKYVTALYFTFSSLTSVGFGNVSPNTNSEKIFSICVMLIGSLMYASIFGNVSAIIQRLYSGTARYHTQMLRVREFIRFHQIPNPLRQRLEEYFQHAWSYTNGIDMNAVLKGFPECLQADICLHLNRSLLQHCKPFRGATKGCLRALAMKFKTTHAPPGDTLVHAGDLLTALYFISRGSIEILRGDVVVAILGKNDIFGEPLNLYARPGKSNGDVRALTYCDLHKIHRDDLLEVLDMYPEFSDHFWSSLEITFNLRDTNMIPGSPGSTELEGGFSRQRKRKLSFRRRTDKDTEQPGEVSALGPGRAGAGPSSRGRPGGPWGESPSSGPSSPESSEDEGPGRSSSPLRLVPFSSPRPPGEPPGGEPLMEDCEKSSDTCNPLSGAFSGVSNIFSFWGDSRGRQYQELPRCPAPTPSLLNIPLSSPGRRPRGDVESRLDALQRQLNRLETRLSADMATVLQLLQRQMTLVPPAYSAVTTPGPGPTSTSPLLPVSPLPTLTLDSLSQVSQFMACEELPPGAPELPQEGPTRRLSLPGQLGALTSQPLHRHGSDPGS
Experiment: primary screen, population patch clamp on CHO cells stably expressing hERG; higher = less effect of the substance
Screen size: about 310,000 compounds; about 14,000 (4.5%) showed an effect of 50% or more. Effects have a minus sign here. Shown is part of a subset that was picked to be rich in strong results.
Record class 1 whenever hERG current change (%, negative = inhibition) at 10uM is at -20% or higher; record class 0 when lower.

CN1CCN(CC(=O)Nc2nc3ccccc3s2)CC1.O=CO    class 1
O=C(CN1CCN(C(=O)c2ccc(-c3nc4ccccc4s3)o2)CC1)Nc1ccc(F)cc1    class 0
CCc1nnc(NC(=O)CCC(=O)NC2CC2)s1    class 0
Cc1ccc(OCCN2CCN(C(=O)CCC(=O)Nc3nnc(CC(C)C)s3)CC2)cc1    class 0

Decide: hERG current change (%, negative = inhibition) at 10uM of CCc1nnc(NC(=O)CCC(=O)NC2CCCC2)s1 >= -20%? class 1

###

Target: human ether-à-go-go-related gene (hERG) potassium channel (human)
Test: primary screen, population patch clamp on CHO cells stably expressing hERG; higher = less effect of the substance
Screen size: about 310,000 compounds; about 14,000 (4.5%) showed an effect of 50% or more. The effect is printed as a negative number. Shown is part of a subset that was picked to be rich in strong results.
MEASURED ENDPOINT: hERG current change (%, negative = inhibition) at 10uM (%)
Write the value in % as a bare number.

O=C(NC1CCCCCC1)C1CCN(S(=O)(=O)c2cnc[nH]2)CC1    8.78
COC(=O)c1ccc(NC(=O)C2CCCN2S(=O)(=O)c2ccc(OC)cc2)cc1 (centres unmarked)    -16.8
CCCCNC(=O)CSc1nnc(-c2cccc(S(=O)(=O)N3CCOCC3)c2)o1    -18.1

Fill blank: measured hERG current change (%, negative = inhibition) at 10uM of the compound COc1ccc2nc(N3CCOCC3)cc(C)c2c1 is ____. -0.452

Now consider CC(C)c1ccc(NC(=O)CNC(=O)Cn2cnc3ccccc3c2=O)cc1 . 3.21

###

Biological target: human ether-à-go-go-related gene (hERG) potassium channel (human)
Experiment: primary screen, population patch clamp on CHO cells stably expressing hERG; higher = less effect of the substance
About 14,000 (4.5%) of roughly 310,000 compounds showed an effect of 50% or more. The effect is printed as a negative number. The full list was thinned out, with strong results kept by preference.
Record 1 whenever hERG current change (%, negative = inhibition) at 10uM is at 10% or higher; record -1 when lower.

Decide: hERG current change (%, negative = inhibition) at 10uM of CCc1cc2cccc(C)c2nc1SCC(=O)N1CCN(C(=O)c2ccco2)CC1 >= 10%? -1

Now consider CN(C)c1nc2n(c(=O)n1)CCO2 . 1

Now consider COc1cc(C(O)P(=O)(OCCC(C)C)c2ccc(N(C)C)cc2)cc(OC)c1OC (centres unmarked) . 1

Now consider COc1ccc(OC)c(S(=O)(=O)N(C)CC(=O)N2CCc3ccccc3C2)c1 . -1

Now consider Cc1ccc2occ(C(c3nnnn3C3CCCC3)N3CCN(C(=O)c4ccco4)CC3)c(=O)c2c1 (centres unmarked) . -1

###

Target: human ether-à-go-go-related gene (hERG) potassium channel (human, UniProt Q12809);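 note: peak tail current of the secondary pulse compared with the same well before compound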
Experiment: primary screen, population patch clamp on CHO cells stably expressing hERG; higher = less effect of the substance
Hit rate of the full screen: of about 310,000 compounds, about 14,000 (4.5%) showed an effect of 50% or more. The effect is printed as a negative number. The list comes from a sample in which strong results are over-represented; it also holds close analogues and randomly drawn compounds.
Record Fulfilled whenever hERG current change (%, negative = inhibition) at 10uM is at 10% or higher; record Not fulfilled when lower.

Check out these entries, answers already filled in.
Cn1c(=O)c2c(SC3CCCC3)nc(C3CC3)nc2n(C)c1=O    Fulfilled
Cc1cnc2cc(Cl)c(Cl)cc2n1    Fulfilled
CC/C(C)=N/NC(=O)c1[nH]c2ccc(C)cc2c1-c1ccccc1    Not fulfilled
NCC/C=C1/c2ccccc2CSc2ccccc21.O=C(O)/C=C\C(=O)O    Not fulfilled

Okay, next one:
Decide: hERG current change (%, negative = inhibition) at 10uM of C/C(=N/NS(=O)(=O)c1cccc([N+](=O)[O-])c1)c1c[nH]c2ccccc12 >= 10%? Fulfilled

###

Molecular target: human ether-à-go-go-related gene (hERG) potassium channel (human);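 note: peak tail current of the secondary pulse compared with the same well before compound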
Test: primary screen, population patch clamp on CHO cells stably expressing hERG; higher = less effect of the substance
Out of some 310,000 compounds screened, about 14,000 (4.5%) showed an effect of 50% or more. Effects have a minus sign here. The full list was thinned out, with strong results kept by preference.
Record yes (1) whenever hERG current change (%, negative = inhibition) at 10uM is at -30% or higher; record no (0) when lower.

Check out these entries, answers already filled in.
O=S(=O)(NC1CCCCC1N1CCN(c2ccc(F)cc2)CC1)c1ccccc1 (stereo not drawn)    yes (1)
CN(C)CCCn1cnc2c(c1=N)C(c1ccccc1)c1ccc3ccccc3c1O2 (stereo not drawn)    no (0)

Decide: hERG current change (%, negative = inhibition) at 10uM of Cc1sc(NC(=S)NC(=O)c2ccc(C(C)(C)C)cc2)c(C#N)c1C >= -30%? yes (1)

Now consider COc1ccc(-c2nnnn2C(C)C)cc1S(=O)(=O)Nc1ccccc1 . yes (1)

Now consider O=C(Cn1cc[n+](CC(=O)c2ccccc2)c1)c1ccccc1.[Br-] . yes (1)

###

Target: human ether-à-go-go-related gene (hERG) potassium channel (human);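 note: peak tail current of the secondary pulse compared with the same well before compound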
Assay: primary screen, population patch clamp on CHO cells stably expressing hERG; higher = less effect of the substance
The campaign covered roughly 310,000 compounds. About 14,000 (4.5%) showed an effect of 50% or more. Effects have a minus sign here. The entries come from a sample that favours strong results as a whole.
Record true whenever hERG current change (%, negative = inhibition) at 10uM is at -30% or higher; record false when lower.

Check out these entries, answers already filled in.
O=C(C[n+]1ccc2ccccc2c1)c1ccccc1.[Br-]    true
COc1ccc(OCc2cccc(C(=O)N3CCCC3)c2)cc1    true
O=C(Nc1ccc(CN2CCCCC2)cc1)c1ccc2c(c1)OCO2    false
CC(C)C(=O)Nc1cccc(NC(=O)c2cccc(Br)c2)c1    false
Cc1cc2oc(=O)cc(CN3CCC(C)CC3)c2c(C)c1Cl    true
O=C(Nc1nsc(-c2ccccc2)n1)c1ccc(F)cc1    true

Okay, next one:
Decide: hERG current change (%, negative = inhibition) at 10uM of Cc1cc(F)ccc1S(=O)(=O)N1CCCOC1CNC(=O)C(=O)NCc1ccc2c(c1)OCO2 (centres unmarked) >= -30%? true

###

Target: human ether-à-go-go-related gene (hERG) potassium channel (human, UniProt Q12809);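 note: peak tail current of the secondary pulse compared with the same well before compound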
Assay: primary screen, population patch clamp on CHO cells stably expressing hERG; higher = less effect of the substance
Hit rate of the full screen: of about 310,000 compounds, about 14,000 (4.5%) showed an effect of 50% or more. Effects have a minus sign here. Only a selection was taken, and strong results are over-represented in it overall.
MEASURED ENDPOINT: hERG current change (%, negative = inhibition) at 10uM (%)
Write the value in % as a bare number.

Consider the following illustrative entries.
CC1CCCN(C(=O)C2CCC(CNc3c(N4CCCCC4)c(=O)c3=O)CC2)C1 (stereo not shown)    -8.22
O=S(=O)(O)c1nc2ccccc2n1Cc1ccccc1    -10.5

Fill blank: measured hERG current change (%, negative = inhibition) at 10uM of the compound COc1ccc(CNC(=O)CN(Cc2ccccc2)S(=O)(=O)c2ccc(Cl)cc2)cc1 is ____. -61.7

Now consider CCOC(=O)N1CCN(C(=O)CN(Cc2ccc(Cl)cc2)S(C)(=O)=O)CC1 . -15.5

Now consider CCN1C(=C(C#N)C#N)C=Cc2cc(C)ccc21 . 15.7

Now consider CCOC(=O)CN1C(=O)C(O)(CC(=O)c2cccc(OC)c2)c2ccccc21 (stereo not shown) . 5.13

Now consider O=C(CCCn1cc([N+](=O)[O-])cn1)Nc1ccc2c(c1)OCO2 . 4.52

Now consider COc1ccc(N(CC(=O)NCc2ccc(F)cc2)S(=O)(=O)c2c(C)n[nH]c2C)cc1 . -26.5

Now consider COc1ccc(N(CC(=O)NCc2ccccc2)S(=O)(=O)c2c(C)n[nH]c2C)cc1 . -35.6

Now consider O=C(OCC(=O)N1CCCc2ccccc21)c1cc(Br)ccc1O . 12.4

Now consider CCN1/C(=C2\C(=O)N(c3ccccc3)N=C2C)C=Cc2cc(C)ccc21 . -40

Now consider CCc1cccc(C)c1NC(=O)COC(=O)Cc1ccsc1 . 10.4

Now consider CCOC(=O)/C(C#N)=C/C=C1\C=Cc2ccccc2N1CC . 7.18

Now consider COc1ccc(C)cc1S(=O)(=O)N(CC(=O)NCc1ccc(Cl)cc1)Cc1ccccc1 . 8.35
